Provenance of the data: patent US20240109917A1

pIC50: recorded values
TEST_TARGET: UniProt:Q05030
Sequence (Q05030 32-1097): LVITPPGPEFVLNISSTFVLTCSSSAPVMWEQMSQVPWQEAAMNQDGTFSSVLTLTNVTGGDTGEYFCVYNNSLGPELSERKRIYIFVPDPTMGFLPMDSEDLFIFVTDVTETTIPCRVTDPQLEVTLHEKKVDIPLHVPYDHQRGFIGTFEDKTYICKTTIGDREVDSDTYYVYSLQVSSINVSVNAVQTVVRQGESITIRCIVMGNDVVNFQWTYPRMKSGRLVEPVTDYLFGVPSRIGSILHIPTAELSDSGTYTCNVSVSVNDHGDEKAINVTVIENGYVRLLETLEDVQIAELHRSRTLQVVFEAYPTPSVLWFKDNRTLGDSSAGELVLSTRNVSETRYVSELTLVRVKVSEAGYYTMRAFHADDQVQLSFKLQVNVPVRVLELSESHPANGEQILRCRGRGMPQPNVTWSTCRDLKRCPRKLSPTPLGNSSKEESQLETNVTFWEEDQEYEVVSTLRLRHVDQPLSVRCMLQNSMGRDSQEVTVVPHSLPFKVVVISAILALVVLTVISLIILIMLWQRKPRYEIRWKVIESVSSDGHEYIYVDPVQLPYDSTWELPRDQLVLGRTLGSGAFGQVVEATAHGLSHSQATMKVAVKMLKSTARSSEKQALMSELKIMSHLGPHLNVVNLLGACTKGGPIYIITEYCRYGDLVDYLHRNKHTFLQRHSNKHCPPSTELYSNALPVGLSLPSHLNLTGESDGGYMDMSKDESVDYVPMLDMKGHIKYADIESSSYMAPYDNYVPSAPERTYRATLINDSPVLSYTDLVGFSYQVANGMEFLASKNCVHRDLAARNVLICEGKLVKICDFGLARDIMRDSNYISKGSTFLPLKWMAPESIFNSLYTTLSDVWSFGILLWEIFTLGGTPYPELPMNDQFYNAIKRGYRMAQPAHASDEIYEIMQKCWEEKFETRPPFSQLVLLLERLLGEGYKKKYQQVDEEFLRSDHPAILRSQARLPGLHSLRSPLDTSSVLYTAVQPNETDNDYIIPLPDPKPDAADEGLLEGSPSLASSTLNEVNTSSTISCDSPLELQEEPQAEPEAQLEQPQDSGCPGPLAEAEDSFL
ASSAY_DETAILS: PDGFRβ Cellular Assay (PDGFRb P-Y751 HTRF in A10 cells stimulated with PDGF-BB)
Format: cell-based
APPLIED_CONDITIONS: read-out: PDGFR Cellular IC50
pIC50: −log10 of the molar value.
PARAMETER_MEASURED: pIC50

                                   compound     test_target  parameter_measured  numeric_readout
0  COCCn1cc(-c2cn3ncc(C(=O)Nc4cc(NC(=O)CCN5C[C@@H]6CC[C@H]5C6)cnc4C)c3s2)cn1 [Example 92]  UniProt:Q05030               pIC50             6.91
1  Cc1ncc(NC(=O)CN2CCC[C@@H]2C)cc1NC(=O)c1cnn2cc(-c3cnn(C)c3)sc12 [Example 27]  UniProt:Q05030               pIC50             8.20
2  COc1cccc(-c2cn3ncc(C(=O)Nc4cc(NC(=O)CN5C[C@H](C)O[C@@H](C)C5)cnc4C)c3s2)n1 (relative stereo) [Example 386]  UniProt:Q05030               pIC50             8.42

---

TEST_TARGET: His6-TEV-PDGFRβ (557-1016) (Homo sapiens (Human), UniProt P09619)
Sequence (P09619 557-1016): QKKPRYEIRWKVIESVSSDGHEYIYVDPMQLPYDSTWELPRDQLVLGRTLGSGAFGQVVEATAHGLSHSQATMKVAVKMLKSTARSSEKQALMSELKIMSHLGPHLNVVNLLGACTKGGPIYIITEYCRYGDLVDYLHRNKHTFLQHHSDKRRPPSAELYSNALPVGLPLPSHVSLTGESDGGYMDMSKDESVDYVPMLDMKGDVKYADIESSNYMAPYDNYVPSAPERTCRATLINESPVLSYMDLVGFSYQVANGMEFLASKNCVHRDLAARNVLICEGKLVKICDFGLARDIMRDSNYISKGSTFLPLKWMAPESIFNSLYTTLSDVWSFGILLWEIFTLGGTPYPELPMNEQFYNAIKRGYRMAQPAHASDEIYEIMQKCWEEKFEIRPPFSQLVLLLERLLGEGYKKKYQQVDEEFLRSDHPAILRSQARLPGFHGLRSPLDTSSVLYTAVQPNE
pIC50: −log10 of the molar value.
Use TRUE when the recorded pIC50 is no lower than 9; use FALSE when it is lower.

>>> print(df.to_string())
                                 cpd_smiles  category
0  Cc1ncc(NC(=O)CCN2CCCC2(C)C)cc1NC(=O)c1cnn2cc(-c3ccn(C)n3)sc12      TRUE
1  Cc1ncc(NC(=O)OC[C@H]2CCCN2C)cc1NC(=O)c1cnn2cc(-c3cnn(C)c3)sc12      TRUE
2  COCCCc1cn2ncc(C(=O)Nc3cc(C(=O)NCCN4CCCC4(C)C)cnc3C)c2s1     FALSE
3  Cc1ncc(C(=O)NCCN2CCC(F)(F)CC2)cc1NC(=O)c1cnn2cc(-c3ccncc3)sc12      TRUE

---

TEST_TARGET: His6-TEV-PDGFRβ (557-1016) (Homo sapiens (Human))
pIC50: −log10 of the molar value.
pIC50: recorded values
PARAMETER_MEASURED: pIC50

                                 cpd_smiles  parameter_measured  numeric_readout
0  COc1ncccc1-c1cn2ncc(C(=O)Nc3cc(NC(=O)CN4CCO[C@H](C)C4)cnc3C)c2s1               pIC50             9.52
1  Cc1ncc(NC(=O)CN2CCC3(COC3)C2)cc1NC(=O)c1cnn2cc(-c3cnn(C)c3)sc12               pIC50             9.22
2  Cn1cc(-c2cn3ncc(C(=O)Nc4cc(C(=O)NCCN5CCCC5(C)C)ccc4F)c3s2)cn1               pIC50             9.52
3  Cc1ncc(NC(=O)OCCN2CCCC2(C)C)cc1NC(=O)c1cnn2cc(-c3cnn(C)c3)sc12               pIC50             9.22
